tested on: MALME-3M melanoma; assay: NCI-60 one-dose screen, 48 h; conditions: 10 µM unless noted
This is part of a sample that, as a whole, favours compounds with a hit. Of some 83,000 tested, about 20% had one in any assay. The source made the active and inactive calls. How the source made its calls: active means growth percent below 10; inactive means the rest.
Labels: 1.0 (active), 0.0 (inactive)

CCCCOC(=O)c1ccccc1O    0.0
CCOC(=O)c1ccc(NC(=O)Nc2nccs2)cc1    0.0
Nc1cc(N)ncn1    0.0
CCCCCCCCCCCCSC1=C(Cl)C(=O)C(OC)=C(OC)C1=O    0.0
Cc1ccc([N+](=O)[O-])c(C)n1    0.0
Nc1nc(N)nc(N2CCCCC2)n1    0.0
NNC(=O)c1ccccc1N    0.0
O=[N+]([O-])c1ccc(-c2nc(N(CCO)CCO)c3ccccc3n2)o1    1.0
Cc1ccc(/C=N/NC(N)=S)s1    0.0
CCOC(=O)CSCCC#N    0.0
CN(C)CCOC(=O)Nc1ccc(Cc2ccc(NC(=O)OCCN(C)C)cc2)cc1    0.0
COc1nc(Nc2cccc(C(F)(F)F)c2)nc(OC)n1    0.0
O=C(O)CSCC(=O)Nc1cc(C(F)(F)F)ccc1Cl    0.0
CC1CN(CCO)CC(C)O1 (stereo not given)    0.0
S=C=Nc1ccc2ccccc2c1    0.0
CCN(C(=O)Nc1ccccc1Cl)c1ccccc1    0.0
CCOC(=O)/C(C#N)=C\c1c[nH]c2ccccc12    0.0
O=C(OC1CCCC1)c1ccccc1Cl    0.0
CC(=O)CSc1ncnc2nc[nH]c12    0.0
CN(C)c1ncnc2c1cnn2C    0.0
COC(=O)c1ccccc1C(=O)c1c(C)cc(C)cc1C    0.0
Cc1c(-c2ccc(C3CCCCC3)cc2)nc2ccc(F)cc2c1C(=O)O    0.0
Cc1ccc(N)c(S(=O)(=O)O)c1    0.0
C/C(=N\O)c1ccccn1    0.0
OC(CCN1CCCCC1)(c1ccccc1)c1ccccc1    0.0
N#CC1(O)CCCCC1    0.0
COc1ccc2c(ccc[n+]2C)c1    0.0
OCc1cccnc1    0.0
CCOc1ccc(C(=O)O)cc1    0.0
S=c1nc2[nH]c3ccccc3c2n[nH]1    0.0

----------
system: HCT-116 colon; assay: NCI-60 one-dose screen, 48 h; conditions: 10 µM unless noted
Compounds without any hit were thinned out: in the full panel of roughly 83,000, 20% have a hit. Activity calls are given as the source filed them. How the source made its calls: active means growth percent below 10; inactive means the rest.
Outcome codes: active, inactive

COc1cc2c(c(OC)c1OC)-c1ccc(SC)c(=O)cc1[C@@H](NC1OC(CO)C(O)C(O)C1O)CC2 (stereo partly drawn)    active
CN(C)CCOC(=O)Nc1ccc(Cc2ccc(NC(=O)OCCN(C)C)cc2)cc1    inactive
COC1C(=O)CCC2(CO2)C1(O)C1(C)OC1CCC(C)C (stereo not drawn)    inactive
NS(=O)(=O)c1cc(=O)[nH]c(=O)[nH]1    inactive
Nc1cc(N)ncn1    inactive
Cc1cc(NC(=O)c2ccccc2)c(Cl)cc1N    inactive
CC1(c2ccccc2)CO1 (stereo not drawn)    inactive
CCOC(=O)C(=O)CC(=O)c1ccccc1    inactive
C/C(=N\O)c1ccccn1    inactive
COc1cccc(N=CNc2cccc(OC)c2)c1    inactive
COc1cccc(C(=O)O)c1OC    inactive
COc1ccc(Br)c(C=O)c1    inactive
Nc1ncnc(Nc2ccc(C(F)(F)F)cc2)n1    inactive
C/C(=N\Nc1ccc([N+](=O)[O-])cc1[N+](=O)[O-])c1ccc(Br)cc1    inactive
O=S(=O)(c1ccc(NC(=S)NCc2cccnc2)cc1)N1CCCCC1    inactive
CCCOCc1cn[nH]n1    inactive
Cn1c2ccccc2c2nnc(NCCCCO)nc21    inactive
CCCCN(C(=O)CC)c1ccccc1    inactive
CC(C)N(C(=O)c1ccccc1)C(C)C    inactive
Cc1ccc(C2CCCCC2)cc1Br    inactive
CCCNS(=O)(=O)c1ccc(Cl)cc1    inactive
Cc1c(Cl)cccc1N=C=S    inactive
CC(=O)NNC(=S)N/C=C/c1c(C)ccc([N+](=O)[O-])c1[N+](=O)[O-]    inactive
Cc1ccc(S(N)(=O)=O)cc1Cl    inactive
Cc1nc(O)cc(=O)[nH]1    inactive
O=S(=O)(O)c1ccc(O)c(C2CCCCC2)c1    inactive
C=CCC(O)C=C (stereo not drawn)    inactive
COC1(OC)C2(Cl)C(Cl)=C(Cl)C1(Cl)C1COCC12 (stereo not drawn)    inactive

----------
Below, each entry is listed alongside its reported growth.
tested on: TK-10 renal; test: NCI-60 one-dose screen, 48 h (100 = growth as untreated, 0 = no growth, -100 = all killed); conditions: 10 µM unless noted
Compounds without any hit were thinned out: in the full panel of roughly 83,000, 20% have a hit.
endpoint_name: growth (%)

Cc1cc2c(C(C)C)c(O)c(O)c(C=Nc3ccccc3[N+](=O)[O-])c2c(O)c1-c1c(C)cc2c(C(C)C)c(O)c(O)c(C=Nc3ccccc3[N+](=O)[O-])c2c1O    84.2
COCC(N)=O    102
CCCCOC(=O)c1ccccc1O    115
CS(=O)(=O)c1ccc(/C=C\C(=O)O)cc1    101
CCCCCCCCCCCCCC/C=C\C(CC(=O)O)C(=O)O (stereo unspecified)    111
CCN(C(C)=O)c1ccc([N+](=O)[O-])cc1    93

----------
tested on: HCT-116 colon; assay: NCI-60 one-dose screen, 48 h (100 = growth as untreated, 0 = no growth, -100 = all killed); conditions: 10 µM unless noted
The panel holds about 83,000 compounds, 20% with a hit somewhere; the sample as a whole holds those more often. Activity calls are given as the source filed them. The calls were made as follows: active = growth percent below 10; inactive = the rest.
Entries and their growth values follow.
endpoint_name: growth

CC(=O)N(CCCCCCN(C(C)=O)C(C)=O)C(C)=O    101% [100 µM] (inactive)
C/C(=N\N=C(/C)c1cccc([N+](=O)[O-])c1)c1cccc([N+](=O)[O-])c1    89.8% (inactive)
Nc1ccn(C2OC(CO)C(O)C2F)c(=O)n1 (configuration not stated)    49.2% (inactive)
C=CC(=O)OC1CCC(C(C)(C)CC)CC1 (configuration not stated)    104% (inactive)
CCCCCCCCCCCCCCCCCC(=O)NCCNC(=O)CCCCCCCCCCCCCCCCC    70.2% (inactive)
CC(C)(C)NCCC(O)c1cc(C(F)(F)F)nc2c(C(F)(F)F)cccc12 (configuration not stated)    56.8% (inactive)
O=C(O)c1c[nH]c2ccccc2c1=O    95% (inactive)
CN(C)c1ccc(/C=C/C(=O)c2ccc(NC(N)=O)cc2)cc1    75.4% (inactive)
O=C1CSc2ccccc2N1    111% (inactive)
CCN(CC)CCCC(C)NC(=S)N/N=C(\C)c1ccccn1 (configuration not stated)    23.9% (inactive)
CC(C)N1CC(=O)N2CSCC2C1=O (configuration not stated)    112% (inactive)
CCOC(=N)CC(=O)Nc1cccc(C)c1Cl    96.3% (inactive)

----------
system: T-47D breast; assay: NCI-60 one-dose screen, 48 h; details: 10 µM unless noted
About 83,000 compounds went through this panel and 20% of them were active in at least one assay; those are over-represented in the sample as a whole. Active and inactive are the calls of the source. The calls were made as follows: active = growth percent below 10; inactive = the rest.
Possible outcomes: yes (active), no (inactive)

O=C(O)CC1=CCCCC1    no
CCC12OC(COc3ccccc3)CN1CCN2c1ccccc1 (centres undefined)    no
O=C1C=C[C@H](O)[C@@]2(CO)O[C@@H]12    no
N#Cc1ccc(OC(=O)Nc2cc(Cl)cc(Cl)c2)cc1    yes
C=CCC(OC(C)=O)c1ccc(C(C)C)cc1 (centres undefined)    no
CCN(CC)CCCC(C)NC(=S)N/N=C(\C)c1ccccn1 (centres undefined)    no
CSc1cnc2ccccc2n1    no
CCN(CC)CCOC(=O)Nc1c(C(C)C)cccc1C(C)C    no
O=C(O)Cc1ccc(Cl)cc1    no
O=C(O)CCCCCNC(=O)OCc1ccccc1    no
COC(CCCl)c1ccc(Cl)cc1 (centres undefined)    no
Cc1ccc[n+](CCC(N)=O)c1    no
O=Cc1ccc(F)cc1    no
NCCCN1CCCC1=O    no

----------
test system: MALME-3M melanoma; experiment: NCI-60 one-dose screen, 48 h (100 = growth as untreated, 0 = no growth, -100 = all killed); conditions: 10 µM unless noted
About 83,000 compounds went through this panel and 20% of them were active in at least one assay; those are over-represented in the sample as a whole. Calls of active or inactive are those of the source. How the source made its calls: active means growth percent below 10; inactive means the rest.
endpoint_name: growth

CCOS(=O)(=O)c1ccc([N+](=O)[O-])cc1    113% (inactive)
CCOC(=O)c1c[nH][nH]c1=O    129% (inactive)
O=C(Oc1ccccc1Cl)c1ccc(Cl)cc1Cl    103% (inactive)
O=C(NCc1ccccc1)c1cccc([N+](=O)[O-])c1    90.5% (inactive)
NNc1ncccn1    118% (inactive)
CCOC(=O)c1ccc(NC(C)=O)o1    107% (inactive)
COC1OC(CO)C(OC)C(O)C1O (stereo not drawn)    111% (inactive)
c1ccc2c(NCCCN3CCN(CCCNc4c5ccccc5nc5ccccc45)CC3)c3ccccc3nc2c1    -69.7% [100 µM] (active)
CC(=O)Nc1ccc(/C=C2\SC(=S)N(/C=C(\C(C)=O)C(N)=O)C2=O)cc1    87.8% (inactive)
CC(=O)Nc1ccc(O)c(C)c1    98.8% (inactive)
Oc1cccnc1CN1CCCC1    107% (inactive)
O=C(NC1CCCCC1)c1ccc(Cl)cc1    106% (inactive)
CC(C)(C)NCCC(O)c1cc(C(F)(F)F)nc2c(C(F)(F)F)cccc12 (stereo not drawn)    102% (inactive)
